Source listed as patent US9796711B2.

Readings of pEC50 for the listed molecules
Biological target: ΔF508-CFTR (Homo sapiens, UniProt P13569, DEL508-508)
Construct: host or cells: CFBE41o-, doxycycline-inducible
Sequence (P13569 with tags, fused parts or gaps DEL508-508): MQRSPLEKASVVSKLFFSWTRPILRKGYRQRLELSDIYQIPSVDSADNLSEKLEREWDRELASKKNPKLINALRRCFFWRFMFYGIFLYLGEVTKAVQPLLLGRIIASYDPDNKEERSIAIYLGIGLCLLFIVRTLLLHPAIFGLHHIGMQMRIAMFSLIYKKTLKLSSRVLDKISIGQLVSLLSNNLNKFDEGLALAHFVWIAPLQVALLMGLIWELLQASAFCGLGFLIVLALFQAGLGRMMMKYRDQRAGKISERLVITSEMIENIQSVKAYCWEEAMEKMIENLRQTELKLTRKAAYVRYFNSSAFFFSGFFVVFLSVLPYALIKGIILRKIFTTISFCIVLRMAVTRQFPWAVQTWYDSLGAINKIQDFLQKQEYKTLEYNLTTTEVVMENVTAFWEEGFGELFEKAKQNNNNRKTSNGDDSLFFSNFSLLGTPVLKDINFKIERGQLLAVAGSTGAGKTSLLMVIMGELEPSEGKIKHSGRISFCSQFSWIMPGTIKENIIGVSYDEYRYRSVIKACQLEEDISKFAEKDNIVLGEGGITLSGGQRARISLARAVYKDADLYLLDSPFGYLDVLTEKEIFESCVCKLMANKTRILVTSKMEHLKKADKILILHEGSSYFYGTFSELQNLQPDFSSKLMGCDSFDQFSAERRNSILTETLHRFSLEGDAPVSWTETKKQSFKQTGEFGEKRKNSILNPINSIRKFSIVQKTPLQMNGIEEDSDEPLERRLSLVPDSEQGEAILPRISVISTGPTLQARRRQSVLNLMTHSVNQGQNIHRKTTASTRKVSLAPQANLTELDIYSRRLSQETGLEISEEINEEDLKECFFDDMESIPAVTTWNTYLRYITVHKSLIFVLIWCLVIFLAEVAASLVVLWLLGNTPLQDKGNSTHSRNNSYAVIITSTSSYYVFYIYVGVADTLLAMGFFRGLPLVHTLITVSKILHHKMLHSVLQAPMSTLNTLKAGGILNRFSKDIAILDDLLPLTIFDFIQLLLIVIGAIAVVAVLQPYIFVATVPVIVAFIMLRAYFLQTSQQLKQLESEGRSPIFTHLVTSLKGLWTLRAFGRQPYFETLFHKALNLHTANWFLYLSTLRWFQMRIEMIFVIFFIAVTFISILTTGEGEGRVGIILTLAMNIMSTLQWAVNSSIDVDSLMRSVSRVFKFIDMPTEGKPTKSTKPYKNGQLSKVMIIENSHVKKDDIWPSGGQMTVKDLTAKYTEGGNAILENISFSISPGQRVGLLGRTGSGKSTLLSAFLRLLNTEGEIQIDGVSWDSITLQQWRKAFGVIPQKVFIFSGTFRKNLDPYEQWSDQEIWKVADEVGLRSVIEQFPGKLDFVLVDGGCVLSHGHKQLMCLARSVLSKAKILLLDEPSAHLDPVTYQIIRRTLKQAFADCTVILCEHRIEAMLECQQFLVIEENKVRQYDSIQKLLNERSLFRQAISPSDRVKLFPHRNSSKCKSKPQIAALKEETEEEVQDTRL
Test: CFTR cell surface levels using HRP-tagged ΔF508-CFTR expressing CFBE cells, intrinsic corrector capacity
Format: cell-based
Details: HRP-tagged ΔF508-CFTR expressing CFBE cells; intrinsic corrector capacity (no co-corrector); 33° C., 20 hours; read-out: EC50
Text: Measuring CFTR Cell Surface Levels Using HRP-Tagged AF508-CFTR Expressing CFBE Cells The HRP-tagged AF508-CFTR cell assay measures the expression of CFTR-ΔF508 at the plasma membrane. […] When HRP-tagged AF508-CFTR is present at the plasma membrane, the HRP enzyme activity can be measured. The amount of CFTR-ΔF508 that can be rescued to the plasma membrane is correlated with the amount of functional enzyme that can be measured. […]
pEC50: −log10 of the molar value.

[
  {
    "molecule": "O=C(O)c1cc(N2CCN3C[C@@H](F)C[C@H]3C2)c2c(C3CCC3)nn(-c3ccccc3)c2n1",
    "measurement.target": "ΔF508-CFTR (Homo sapiens, UniProt P13569, DEL508-508)",
    "inequality.symbol": "<",
    "pEC50": 5.00
  },
  {
    "molecule": "O=C(O)c1cc(N2CC[C@@H](F)[C@H](O)C2)c2c(C3CCC3)nn(-c3ccccc3)c2n1",
    "measurement.target": "ΔF508-CFTR (Homo sapiens, UniProt P13569, DEL508-508)",
    "inequality.symbol": "=",
    "pEC50": 5.73
  },
  {
    "molecule": "O=C(O)c1cc(N2CCC(CN3CC4CC4C3)CC2)c2c(C3CCC3)nn(-c3ccccc3)c2n1 (stereo not drawn)",
    "measurement.target": "ΔF508-CFTR (Homo sapiens, UniProt P13569, DEL508-508)",
    "inequality.symbol": "=",
    "pEC50": 6.68
  },
  {
    "molecule": "O=C(O)c1cc(N2CC[C@@H](O)[C@H](F)C2)c2c(C3CCC3)nn(-c3ccccc3)c2n1",
    "measurement.target": "ΔF508-CFTR (Homo sapiens, UniProt P13569, DEL508-508)",
    "inequality.symbol": "=",
    "pEC50": 5.94
  },
  {
    "molecule": "O=C(O)c1cc(O[C@H]2CCOC2)c2c(C3CCC3)nn(-c3ccccc3)c2n1",
    "measurement.target": "ΔF508-CFTR (Homo sapiens, UniProt P13569, DEL508-508)",
    "inequality.symbol": "=",
    "pEC50": 5.99
  },
  {
    "molecule": "CO[C@@H]1CCN(c2cc(C(=O)O)nc3c2c(C2CCC2)nn3-c2ccccc2)C1",
    "measurement.target": "ΔF508-CFTR (Homo sapiens, UniProt P13569, DEL508-508)",
    "inequality.symbol": "=",
    "pEC50": 6.32
  },
  {
    "molecule": "CN1CCC[C@@H](Oc2cc(C(=O)O)nc3c2c(C2CCC2)nn3-c2ccccc2)C1",
    "measurement.target": "ΔF508-CFTR (Homo sapiens, UniProt P13569, DEL508-508)",
    "inequality.symbol": "=",
    "pEC50": 5.48
  },
  {
    "molecule": "O=C(O)c1cc(N2CCC(N3CCC(F)CC3)CC2)c2c(C3CCC3)nn(-c3ccc(F)cc3)c2n1",
    "measurement.target": "ΔF508-CFTR (Homo sapiens, UniProt P13569, DEL508-508)",
    "inequality.symbol": "=",
    "pEC50": 6.18
  },
  {
    "molecule": "N#CC1CCN(C2CCN(c3cc(C(=O)O)nc4c3c(C3CCC3)nn4-c3ccc(F)cc3)CC2)C1 (stereo not drawn)",
    "measurement.target": "ΔF508-CFTR (Homo sapiens, UniProt P13569, DEL508-508)",
    "inequality.symbol": "=",
    "pEC50": 5.98
  },
  {
    "molecule": "CC(C)c1nn(-c2ccc(F)cc2)c2nc(C(=O)O)cc(N3CC4(CCCOC4)C3)c12",
    "measurement.target": "ΔF508-CFTR (Homo sapiens, UniProt P13569, DEL508-508)",
    "inequality.symbol": "=",
    "pEC50": 5.87
  },
  {
    "molecule": "CC(C)c1nn(-c2ccc(F)cc2)c2nc(C(=O)O)cc(OCCC3CCOCC3)c12",
    "measurement.target": "ΔF508-CFTR (Homo sapiens, UniProt P13569, DEL508-508)",
    "inequality.symbol": "=",
    "pEC50": 6.13
  },
  {
    "molecule": "CO[C@@H]1CCN(CC2CCN(c3cc(C(=O)O)nc4c3c(C3CCC3)nn4-c3ccccc3)CC2)C1",
    "measurement.target": "ΔF508-CFTR (Homo sapiens, UniProt P13569, DEL508-508)",
    "inequality.symbol": "=",
    "pEC50": 5.99
  },
  {
    "molecule": "CCOCC1(F)CCCN(c2cc(C(=O)O)nc3c2c(C2CCC2)nn3-c2ccccc2)C1 (stereo not drawn)",
    "measurement.target": "ΔF508-CFTR (Homo sapiens, UniProt P13569, DEL508-508)",
    "inequality.symbol": "=",
    "pEC50": 6.19
  },
  {
    "molecule": "O=C1CN(c2cc(C(=O)O)nc3c2c(C2CCC2)nn3-c2ccccc2)CCN1",
    "measurement.target": "ΔF508-CFTR (Homo sapiens, UniProt P13569, DEL508-508)",
    "inequality.symbol": "<",
    "pEC50": 5.00
  },
  {
    "molecule": "O=C(O)c1cc(N2CCC(N3CCOCC3)CC2)c2c(C3CCC3)nn(-c3ccnc(O)c3)c2n1",
    "measurement.target": "ΔF508-CFTR (Homo sapiens, UniProt P13569, DEL508-508)",
    "inequality.symbol": "=",
    "pEC50": 5.48
  }
]

* * *

biological target: ΔF508-CFTR (Homo sapiens, UniProt P13569, DEL508-508); construct: host or cells: CFBE41o-, doxycycline-inducible; experiment: CFTR cell surface levels using HRP-tagged ΔF508-CFTR expressing CFBE cells, intrinsic corrector capacity; type: cell-based; conditions: HRP-tagged ΔF508-CFTR CFBE41o- cells, compounds alone (intrinsic corrector capacity), 20 hours at 33° C.; positive control 3 μM corrector
% Activation values, listed per item

[
  {
    "molecule": "CC(=O)N1CCC2CN(c3cc(C(=O)O)nc4c3c(C(C)C)nn4-c3cccc(C)c3)CCC21 (stereo not drawn)",
    "measurement.target": "ΔF508-CFTR (Homo sapiens, UniProt P13569, DEL508-508)",
    "% Activation (%)": 120.77
  },
  {
    "molecule": "Cc1nn(-c2ccccc2)c2nc(C(=O)O)cc(-c3ccc(N4CC(F)(F)C4)cc3)c12",
    "measurement.target": "ΔF508-CFTR (Homo sapiens, UniProt P13569, DEL508-508)",
    "% Activation (%)": 96.51
  },
  {
    "molecule": "O=C(O)c1cc(-c2ccc(N3CCOCC3)cc2)c2c(C3CCC3)nn(-c3cc(F)cc(F)c3)c2n1",
    "measurement.target": "ΔF508-CFTR (Homo sapiens, UniProt P13569, DEL508-508)",
    "% Activation (%)": 224.1
  },
  {
    "molecule": "N#CC1CCN(c2ccc(-c3cc(C(=O)O)nc4c3c(C3CCC3)nn4-c3cccc(N4CCCC4)c3)cn2)CC1",
    "measurement.target": "ΔF508-CFTR (Homo sapiens, UniProt P13569, DEL508-508)",
    "% Activation (%)": 405.93
  },
  {
    "molecule": "CC(C)c1nn(-c2cccc(C(F)(F)F)c2)c2nc(C(=O)O)cc(-c3ccc(N(C)C4CCOCC4)nc3)c12",
    "measurement.target": "ΔF508-CFTR (Homo sapiens, UniProt P13569, DEL508-508)",
    "% Activation (%)": 234.95
  },
  {
    "molecule": "Cc1nn(-c2ccccc2)c2nc(C(=O)O)cc(OCC3(C)COC3)c12",
    "measurement.target": "ΔF508-CFTR (Homo sapiens, UniProt P13569, DEL508-508)",
    "% Activation (%)": 36.645
  },
  {
    "molecule": "O=C(O)c1cc(-c2ccc(N3CCOCC3)cc2)c2c(C3CCC3)nn(-c3ccc(C(F)(F)F)cc3)c2n1",
    "measurement.target": "ΔF508-CFTR (Homo sapiens, UniProt P13569, DEL508-508)",
    "% Activation (%)": 152.8
  },
  {
    "molecule": "Cc1cccc(-n2nc(C(C)C)c3c(-c4ccc(N5CCOCC5)cc4)cc(C(=O)O)nc32)c1",
    "measurement.target": "ΔF508-CFTR (Homo sapiens, UniProt P13569, DEL508-508)",
    "% Activation (%)": 199.98
  },
  {
    "molecule": "COC1CCN(c2cc(C(=O)O)nc3c2c(C(C)C)nn3C2CCCCC2)CC1",
    "measurement.target": "ΔF508-CFTR (Homo sapiens, UniProt P13569, DEL508-508)",
    "% Activation (%)": 213.88
  },
  {
    "molecule": "Cc1nn(-c2ccccc2)c2nc(C(=O)O)cc(OCC(F)C3CCOCC3)c12 (stereo not drawn)",
    "measurement.target": "ΔF508-CFTR (Homo sapiens, UniProt P13569, DEL508-508)",
    "% Activation (%)": 95.185
  },
  {
    "molecule": "Cc1nn(-c2ccccc2)c2nc(C(=O)O)cc(N3CC4(CCCOC4)C3)c12",
    "measurement.target": "ΔF508-CFTR (Homo sapiens, UniProt P13569, DEL508-508)",
    "% Activation (%)": 59.78
  },
  {
    "molecule": "Cc1nn(-c2cccc(S(N)(=O)=O)c2)c2nc(C(=O)O)cc(-c3ccc(N4CCOCC4)cc3)c12",
    "measurement.target": "ΔF508-CFTR (Homo sapiens, UniProt P13569, DEL508-508)",
    "% Activation (%)": 5.851
  },
  {
    "molecule": "CC(C)c1nn(-c2cccc(N(C)C)c2)c2nc(C(=O)O)cc(-c3ccc(N4CCOCC4)nc3)c12",
    "measurement.target": "ΔF508-CFTR (Homo sapiens, UniProt P13569, DEL508-508)",
    "% Activation (%)": 314.6
  },
  {
    "molecule": "Cc1nn(-c2ccccc2)c2nc(C(=O)O)cc(-c3ccc(N4C[C@@H]5C[C@H]4CO5)cc3)c12",
    "measurement.target": "ΔF508-CFTR (Homo sapiens, UniProt P13569, DEL508-508)",
    "% Activation (%)": 221.4
  },
  {
    "molecule": "CC(C)c1nn(-c2cccc(N3CCCC3)c2)c2nc(C(=O)O)cc(-c3ccc(N(C)C4CCOCC4)cc3)c12",
    "measurement.target": "ΔF508-CFTR (Homo sapiens, UniProt P13569, DEL508-508)",
    "% Activation (%)": 410.6
  },
  {
    "molecule": "Cc1nn(-c2ccccc2)c2nc(C(=O)O)cc(OCC3(CF)CC3)c12",
    "measurement.target": "ΔF508-CFTR (Homo sapiens, UniProt P13569, DEL508-508)",
    "% Activation (%)": 65.365
  },
  {
    "molecule": "CC(=O)N1CCN(c2ccc(-c3cc(C(=O)O)nc4c3c(C)nn4-c3ccccc3)cc2)CC1",
    "measurement.target": "ΔF508-CFTR (Homo sapiens, UniProt P13569, DEL508-508)",
    "% Activation (%)": 146.1
  },
  {
    "molecule": "COCCN(C)c1ncc(-c2cc(C(=O)O)nc3c2c(C(C)C)nn3-c2cccc(N3CCOCC3)c2)cn1",
    "measurement.target": "ΔF508-CFTR (Homo sapiens, UniProt P13569, DEL508-508)",
    "% Activation (%)": 368.85
  }
]
